Origin of measurements: patent US9000002B2

We begin with a simple list: items and their reported melting point.
measurement kind: melting point

{"sample smiles": "CCCCCNC(=O)n1cc(F)c(NC(=O)NCc2ccccc2OC)nc1=O", "measurement kind": "melting point", "value measured": "248 to 250 °C"}
{"sample smiles": "CCCNC(=O)n1cc(F)c(NC(=O)Cc2ccc(OC)cc2)nc1=O", "measurement kind": "melting point", "value measured": "227 to 229 °C"}
{"sample smiles": "Nc1nc(=O)n(C(=O)Nc2ccc(F)c(Cl)c2)cc1F", "measurement kind": "melting point", "value measured": "251 to 254 °C"}
{"sample smiles": "Cc1ccccc1NC(=O)n1cc(F)c(N)nc1=O", "measurement kind": "melting point", "value measured": "277 to 280 °C (dec.)"}
{"sample smiles": "CCCNC(=O)n1cc(F)c(NC(=O)NCc2ccccc2OC)nc1=O", "measurement kind": "melting point", "value measured": "248 to 250 °C"}
{"sample smiles": "Nc1nc(=O)n(C(=O)NC2CCCC2)cc1F", "measurement kind": "melting point", "value measured": "294 to 297 °C"}
{"sample smiles": "N#Cc1ccc(NC(=O)n2cc(F)c(N)nc2=O)cc1", "measurement kind": "melting point", "value measured": "254 to 257 °C"}
{"sample smiles": "O=C(Nc1nc(=O)n(C(=O)NCc2ccc(Cl)cc2)cc1F)c1ccccc1", "measurement kind": "melting point", "value measured": "210 to 212 °C"}
{"sample smiles": "COc1ccccc1CNC(=O)Nc1nc(=O)n(C(=O)NC(C)C)cc1F", "measurement kind": "melting point", "value measured": "251 to 253 °C"}
{"sample smiles": "CN(C)/C=N/c1nc(=O)n(C(=O)NCc2ccccc2)cc1F", "measurement kind": "melting point", "value measured": "147 to 150 °C"}
{"sample smiles": "Nc1nc(=O)n(C(=O)Nc2ccccc2)cc1F", "measurement kind": "melting point", "value measured": "275 to 277 °C (dec.)"}
{"sample smiles": "Nc1nc(=O)n(C(=O)Nc2ccccc2Cl)cc1F", "measurement kind": "melting point", "value measured": "258 to 261 °C"}
{"sample smiles": "CCNC(=O)n1cc(F)c(NC(=O)c2ccccc2Cl)nc1=O", "measurement kind": "melting point", "value measured": "239 to 241 °C"}
{"sample smiles": "COCCCNC(=O)n1cc(F)c(N)nc1=O", "measurement kind": "melting point", "value measured": "295 to 298 °C"}
{"sample smiles": "CCCNC(=O)n1cc(F)c(NC(=O)C(C)C)nc1=O", "measurement kind": "melting point", "value measured": "226 to 228 °C"}
{"sample smiles": "COc1ccccc1NC(=O)n1cc(F)c(N)nc1=O", "measurement kind": "melting point", "value measured": "277 to 280 °C (dec.)"}
{"sample smiles": "CSCCNC(=O)n1cc(F)c(N)nc1=O", "measurement kind": "melting point", "value measured": "237 to 239 °C"}
{"sample smiles": "CCNC(=O)n1cc(F)c(NC(C)=O)nc1=O", "measurement kind": "melting point", "value measured": "233 to 235 °C"}
{"sample smiles": "COc1ccc(NC(=O)n2cc(F)c(N)nc2=O)cc1", "measurement kind": "melting point", "value measured": "252 to 255 °C"}
{"sample smiles": "Cc1ccc(NC(=O)n2cc(F)c(NCc3ccccc3F)nc2=O)cc1", "measurement kind": "melting point", "value measured": "158 to 162 °C"}
{"sample smiles": "Nc1nc(=O)n(C(=O)Nc2ccsc2)cc1F", "measurement kind": "melting point", "value measured": "263 to 265 °C"}
{"sample smiles": "CCNC(=O)n1cc(F)c(NC(=O)C(C)C)nc1=O", "measurement kind": "melting point", "value measured": "226 to 228 °C"}
{"sample smiles": "CCOC(=O)CNC(=O)n1cc(F)c(N)nc1=O", "measurement kind": "melting point", "value measured": "220 to 224 °C"}
{"sample smiles": "Nc1nc(=O)n(C(=O)NCc2ccccc2F)cc1F", "measurement kind": "melting point", "value measured": "260 to 262 °C"}
{"sample smiles": "CCOC(=O)CCNC(=O)n1cc(F)c(/N=C/N(C)C)nc1=O", "measurement kind": "melting point", "value measured": "232 to 236 °C"}
{"sample smiles": "Nc1nc(=O)n(C(=O)Nc2ccc(F)cc2)cc1F", "measurement kind": "melting point", "value measured": "257 to 259 °C"}
{"sample smiles": "CN(C(=S)n1cc(F)c(N)nc1=O)c1cccc(C(F)(F)F)c1", "measurement kind": "melting point", "value measured": "126 to 131 °C"}
{"sample smiles": "CC(C)NC(=O)n1cc(F)c(N)nc1=O", "measurement kind": "melting point", "value measured": "291 to 294 °C"}

====

We begin with a simple list: items and their reported pest or weed control at 100 ppm.
tested on: Mycosphaerella graminicola; Anamorph: Septoria tritici; Bayer Code SEPTTR; assay: Evaluation of fungicidal activity: leaf blotch of wheat (SEPTTR), wheat plants variety Yuma; format: in vivo; conditions: Zymoseptoria tritici, 24 h; One-Day Protectant (1DP), 100 ppm, wheat plants, percent control vs untreated inoculated plants; read-out: SEPTTR 100 PPM 1DP (% Disease Control rating)

{"sample smiles": "Nc1nc(=O)n(C(=O)Nc2ccsc2)cc1F", "pest or weed control at 100 ppm": "76 to 100%"}
{"sample smiles": "O=C(Nc1nc(=O)n(C(=O)NCc2ccc(Cl)cc2)cc1F)c1ccccc1", "pest or weed control at 100 ppm": "76 to 100%"}
{"sample smiles": "CCCNC(=O)n1cc(F)c(NC(=O)c2ccccc2)nc1=O", "pest or weed control at 100 ppm": "76 to 100%"}
{"sample smiles": "CCCNC(=O)n1cc(F)c(NC(=O)NCc2ccccc2OC)nc1=O", "pest or weed control at 100 ppm": "0 to 25%"}
{"sample smiles": "O=C(Nc1ccc(F)cc1F)n1cc(F)c(NCc2ccccc2F)nc1=O", "pest or weed control at 100 ppm": "0 to 25%"}
{"sample smiles": "Cc1ccccc1NC(=O)n1cc(F)c(N)nc1=O", "pest or weed control at 100 ppm": "76 to 100%"}
{"sample smiles": "CCCNC(=O)n1cc(F)c(NC(=O)Cc2ccc(OC)cc2)nc1=O", "pest or weed control at 100 ppm": "76 to 100%"}
{"sample smiles": "COCCCNC(=O)n1cc(F)c(N)nc1=O", "pest or weed control at 100 ppm": "76 to 100%"}
{"sample smiles": "COc1cccc(NC(=O)n2cc(F)c(N)nc2=O)c1", "pest or weed control at 100 ppm": "76 to 100%"}
{"sample smiles": "CC(C)NC(=O)n1cc(F)c(N)nc1=O", "pest or weed control at 100 ppm": "76 to 100%"}
